// 8OG:A repair function score lookup, one value per entry
B1: library; numbered along this chain (parent)
chain: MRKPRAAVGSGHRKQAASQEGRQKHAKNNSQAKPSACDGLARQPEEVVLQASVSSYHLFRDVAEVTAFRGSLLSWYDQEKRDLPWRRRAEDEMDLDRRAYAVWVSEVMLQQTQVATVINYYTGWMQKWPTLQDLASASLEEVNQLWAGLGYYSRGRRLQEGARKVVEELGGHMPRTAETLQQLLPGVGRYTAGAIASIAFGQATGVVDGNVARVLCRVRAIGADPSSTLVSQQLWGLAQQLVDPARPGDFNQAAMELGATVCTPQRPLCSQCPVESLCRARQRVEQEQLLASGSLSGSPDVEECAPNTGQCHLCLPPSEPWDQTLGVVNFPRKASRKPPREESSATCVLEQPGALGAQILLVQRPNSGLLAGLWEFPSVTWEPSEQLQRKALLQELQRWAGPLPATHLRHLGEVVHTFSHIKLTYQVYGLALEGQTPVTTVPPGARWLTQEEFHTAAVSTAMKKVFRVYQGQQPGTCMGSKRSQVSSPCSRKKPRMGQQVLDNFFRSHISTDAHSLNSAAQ

Variants of: B1
Experiment: 8OG:A repair function score (normalized; synonymous = 0, nonsense = -1) (normalized log-likelihood score); higher = more repair activity (WT-like);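 further: cells sorted at 72 h after reporter transfection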
Conditions: with 8OG:A DNA repair reporter (GFP) in HEK-293 MUTYH KO cells
measuredMetric: 8OG:A repair function score

{"variantDesignation": "V211N", "measuredMetric": "8OG:A repair function score", "experimentalResult": -0.806}
{"variantDesignation": "Q386N", "measuredMetric": "8OG:A repair function score", "experimentalResult": 0.0466}
{"variantDesignation": "P84N", "measuredMetric": "8OG:A repair function score", "experimentalResult": -0.796}
{"variantDesignation": "P129Y", "measuredMetric": "8OG:A repair function score", "experimentalResult": -0.513}
{"variantDesignation": "V206G", "measuredMetric": "8OG:A repair function score", "experimentalResult": -0.835}
{"variantDesignation": "Q132P", "measuredMetric": "8OG:A repair function score", "experimentalResult": 0.0126}
{"variantDesignation": "R283T", "measuredMetric": "8OG:A repair function score", "experimentalResult": -0.308}
{"variantDesignation": "Q159N", "measuredMetric": "8OG:A repair function score", "experimentalResult": -0.144}
{"variantDesignation": "E178P", "measuredMetric": "8OG:A repair function score", "experimentalResult": -0.125}
{"variantDesignation": "A101P", "measuredMetric": "8OG:A repair function score", "experimentalResult": -0.398}
{"variantDesignation": "A115M", "measuredMetric": "8OG:A repair function score", "experimentalResult": -0.164}
{"variantDesignation": "S138P", "measuredMetric": "8OG:A repair function score", "experimentalResult": -0.0208}
{"variantDesignation": "A220L", "measuredMetric": "8OG:A repair function score", "experimentalResult": -0.81}
{"variantDesignation": "A305E", "measuredMetric": "8OG:A repair function score", "experimentalResult": -0.0473}
{"variantDesignation": "L373I", "measuredMetric": "8OG:A repair function score", "experimentalResult": -0.315}
{"variantDesignation": "E256G", "measuredMetric": "8OG:A repair function score", "experimentalResult": -0.676}
{"variantDesignation": "A196W", "measuredMetric": "8OG:A repair function score", "experimentalResult": -1.18}
{"variantDesignation": "A259Y", "measuredMetric": "8OG:A repair function score", "experimentalResult": -0.675}
{"variantDesignation": "V142Q", "measuredMetric": "8OG:A repair function score", "experimentalResult": -0.397}
{"variantDesignation": "S486G", "measuredMetric": "8OG:A repair function score", "experimentalResult": 0.0224}
{"variantDesignation": "Q394V", "measuredMetric": "8OG:A repair function score", "experimentalResult": -0.209}
{"variantDesignation": "G205N", "measuredMetric": "8OG:A repair function score", "experimentalResult": -0.947}

The values you see were collected from the supplement of paper PMC11908140.
